- System: A549/ATCC NSCLC
- experiment-description: NCI-60 one-dose screen, 48 h
- recorded-conditions: 10 µM unless noted
The panel holds about 83,000 compounds, 20% with a hit somewhere; the sample as a whole holds those more often. Activity calls are given as the source filed them. The calls were made as follows: active = growth percent below 10; inactive = the rest.
Write down one outcome, taken from class 1 (active), class 0 (inactive)

Could you check what this test reported for CC1=C2[C@@H](CC1)[C@]1(C)O[C@@](C(C)C)(C[C@H]1OC(=O)CO)[C@H]2OC(=O)C1CC1c1ccccc1 (some centres undefined) ?
class 0

###

- Test system: ACHN renal
- experiment-description: NCI-60 one-dose screen, 48 h (100 = growth as untreated, 0 = no growth, -100 = all killed)
- recorded-conditions: 10 µM unless noted
About 83,000 compounds went through this panel and 20% of them were active in at least one assay; those are over-represented in the sample as a whole.
recorded-metric: growth (%)
Output spec: scalar in %, unitless text.

For `Cn1cc(-c2csc(-c3cn(CCOC(N)=O)c4ccccc34)n2)c2cccnc21` the molecule record lists growth as 97

For `CCOC(=O)c1ccc(Nc2ncnc3c2cnn3-c2cccc(F)c2)cc1` the molecule record lists growth as 96.5

For `COC1=CC(=O)C(OC)=C(O)C1=O` the molecule record lists growth as 98.2

For `CCc1c2c(nc3ccc(OCc4ccc(B5OC(C)(C)C(C)(C)O5)cc4)cc13)-c1cc3c(c(=O)n1C2)COC(=O)[C@]3(O)CC` the molecule record lists growth as -9.99

For `Cc1ccc(-c2nc3nc(-c4ccccc4)nc(N4CCCNCC4)c3o2)cc1` the molecule record lists growth as -98.9

For CC(=O)N1N=C(c2ccc(Nc3nc(Nc4ccc(F)cc4)nc(Nc4ccc(Cl)cc4)n3)cc2)CC1c1ccc(N(C)C)cc1 (configuration not stated) the molecule record lists growth as 61.8

For `Cc1nc2cccc(NCCCCC(=O)NO)c2c(=O)n1-c1ccccc1` the molecule record lists growth as 54.3

###

- Tested on: SF-539 CNS
- experiment-description: NCI-60 one-dose screen, 48 h (100 = growth as untreated, 0 = no growth, -100 = all killed)
- recorded-conditions: 10 µM unless noted
Compounds without any hit were thinned out: in the full panel of roughly 83,000, 20% have a hit.
recorded-metric: growth (%)
Output spec: scalar in %, unitless text.

C[C@@H]1CC[C@@H]2[C@@H]1[C@H](OC(=O)/C=C/c1ccccc1)[C@]1(c3ccccc3)C[C@@H](NC(=O)CO)[C@@]2(C)O1 :: 97.9
CCOC(=O)c1cnn(CC(O)CC)c1NC(=O)NCc1ccccc1C(F)(F)F (stereo not given) :: 99.1
COc1cc(CO)cc2cc3ccccc3nc12 :: 102
CN(C)C(=O)c1cc2cnc(Nc3ccc(-c4csc5c(=S)cc(N6CCOCC6)oc45)cc3)nc2n1C1CCCC1 :: -24.5

# context switch: different compound, same growth
For `O=C1c2cccc3cccc(c23)C(=O)N1N1C(=O)c2cccc3c(N4CCNCC4)ccc(c23)C1=O` the compound record lists growth as 100

###

- Test system: SK-OV-3 ovarian
- experiment-description: NCI-60 one-dose screen, 48 h (100 = growth as untreated, 0 = no growth, -100 = all killed)
- recorded-conditions: 10 µM unless noted
This is part of a sample that, as a whole, favours compounds with a hit. Of some 83,000 tested, about 20% had one in any assay.
Below, each entry is listed with its recorded growth.
Output spec: scalar in %, unitless text.

Bench note, SK-OV-3 ovarian: entry COc1c(O)c(O)cc2c3c(oc12)CC(c1ccc2c(c1)OCO2)CC3=O (stereo not drawn) , its growth = 90.1

Bench note, SK-OV-3 ovarian: entry `CC(=O)OC[C@]12CCC(C)(C)C=C1[C@H]1CC[C@@H]3[C@@]4(C)CCCNC(C)(C)[C@@H]4CC[C@@]3(C)[C@]1(C)CC2` , its growth = 90.5

Bench note, SK-OV-3 ovarian: entry `CCN(CC)CC#CCOC(=O)[C@]1(C)CCC[C@]2(C)c3ccc(C(C)C)cc3CC[C@@H]12` , its growth = 89.2
